Tested on: OVCAR-3 ovarian
Experiment: NCI-60 one-dose screen, 48 h
Details: 10 µM
Method: Growth inhibition of the OVCAR-3 human tumor cell line is measured as a screen for anti-cancer activity. Cells are grown in 96 well plates and exposed to the test compound for 48 hours. Compounds are tested at a single concentration, which is 10^-5 M for most compounds. The reported endpoint is percent growth (GI% or GIPRCNT), where numbers from 0 - 100% represent growth inhibition, and numbers from -100% - 0 represent cell death. For example, a value of 40 represents 60% growth inhibition. […]
About 83,000 compounds went through this panel and 20% of them were active in at least one assay; those are over-represented in the sample as a whole. The source made the active and inactive calls. How the source made its calls: active means growth percent below 10; inactive means the rest.
# valid calls are active, inactive; nothing else

COc1cc2c3c(n(CCCn4ccnc4)c(=O)c2cc1OC)-c1nc2c(cc1C3=O)OCO2: inactive
CC[C@]12C=CCN3CC[C@@]4(c5cc(C#CCNc6ccc(C)c(Nc7nccc(-c8cccnc8)n7)c6)c(OC)cc5N(C)[C@H]4[C@@](O)(C(=O)OC)[C@@H]1OC(C)=O)C32 (stereo partly drawn): inactive
COc1ccc2[nH]c(O)c(N=NC(=O)c3cc(-c4ccc(C)cc4)nc4ccccc34)c2c1: inactive
O=C(NCCCCCCCCCC[P+](c1ccccc1)(c1ccccc1)c1ccccc1)c1ccc(-n2nc(-c3ccccc3O)nc2-c2ccccc2O)cc1: active
O=C(NO)c1ccc(Cn2ccc3c(Nc4ccccc4)ncnc32)cc1: inactive
Cc1cc(C(F)(F)F)ccc1C(=O)Nc1sc2c(c1C#N)CCC(=O)C2: active
COc1ccc(CN2[C@@H](C(=O)NCc3ccc(C(=O)NO)cc3)Cc3c([nH]c4ccccc34)[C@@H]2C2CC2)cc1: inactive
COc1ccc(C=CC(=O)c2ccc(-n3c(C)nc4c(cnn4-c4ccccc4)c3=O)cc2)cc1: inactive

*Q* Hi team, can someone confirm the assay call for CC(=O)Nc1ccc(-n2cnc3cc(-c4ccc(O)cc4)ccc32)cc1C ?
*A* inactive

*Q* Could you do the same for CCOP(=O)(OCC)O[C@H]1CCC(=O)[C@@H]2[C@H]1[C@H]1C[C@@H]3[C@@]4(C)CCCC(C)(C(=O)OC)[C@@H]4CC[C@@]23C=C1C(C)C (stereo partly drawn) , please?
*A* inactive

*Q* Could you do the same for Cc1cc(C)nc(NS(=O)(=O)c2ccc(N/C(N)=N/c3nccc(-c4cccs4)n3)cc2)n1 , please?
*A* inactive

*Q* Could you do the same for CC1=C2C(=C[C@@](C)(COCOCCCl)[C@@H]2O)C(=O)[C@](C)(O)C12CC2 , please?
*A* active

*Q* Could you do the same for COC[C@@H](CC(C)C)N=C1N/C(=C\c2ccc3ncsc3c2)C(=O)N1C , please?
*A* active
